Tested on: Uromyces appendiculatus
Assay: Example IX-D: in vivo preventive test on Uromyces appendiculatus (bean rust)
Details: 264 h, compounds of formula IX, 500 ppm of active ingredient, bean plants, preventive spray, evaluated 11 days after inoculation, read-out: efficacy
Can you tell me pest or weed control at 500 ppm for the items I'm about to list?

Query: Using the record for O=C(Cn1cncc1Br)c1ccc(Oc2ccc(Cl)cc2)cc1Br , report its pest or weed control at 500 ppm.
Response: 90 to 100%

Query: Using the record for O=C(Cn1cncc1Br)c1ccc(Oc2ccc(Br)cc2)cc1C(F)(F)F , report its pest or weed control at 500 ppm.
Response: 90 to 100%

Query: Using the record for O=C(Cn1cncc1Cl)c1ccc(Oc2ccc(F)cc2)cc1Cl , report its pest or weed control at 500 ppm.
Response: 90 to 100%

Query: Using the record for O=C(Cn1cncc1Br)c1ccc(Oc2ccc(OC(F)(F)F)cc2)cc1Br , report its pest or weed control at 500 ppm.
Response: 70 to 79%

Query: Using the record for O=C(Cn1cncc1Cl)c1ccc(Oc2ccc(Br)cc2)cc1C(F)(F)F , report its pest or weed control at 500 ppm.
Response: 80 to 89%

Query: Using the record for N#Cc1cncn1CC(=O)c1ccc(Oc2ccc(Br)cc2)cc1C(F)(F)F , report its pest or weed control at 500 ppm.
Response: 90 to 100%

Query: Using the record for N#Cc1cncn1CC(=O)c1ccc(Oc2ccc(I)cc2)cc1Br , report its pest or weed control at 500 ppm.
Response: 90 to 100%

Query: Using the record for O=C(Cn1cncc1Cl)c1ccc(Oc2ccc(Br)cc2)cc1Cl , report its pest or weed control at 500 ppm.
Response: 90 to 100%

Query: Using the record for O=C(Cn1cncc1Cl)c1ccc(Oc2ccc(I)cc2)cc1Cl , report its pest or weed control at 500 ppm.
Response: 90 to 100%

Query: Using the record for O=C(Cn1cncc1F)c1cnc(Oc2ccc(C(F)F)cc2)cc1C(F)(F)F , report its pest or weed control at 500 ppm.
Response: 90 to 100%
